The measured values listed here are drawn from PubChem BioAssay.

Assay: MM1S cell viability effects, profiling panel, calcein-AM fluorescence, 48 h, basal (AID 1165);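 also: viability of MM1S multiple myeloma cells under basal unstimulated conditions; test concentration not given here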
Conditions: higher = more signal
Quick reference: z-score of the listed items.
reported-endpoint: z-score

INSERT INTO results (compound, reported_endpoint, numeric_value) VALUES
  ('C[C@]1(C(=O)NCC(F)(F)F)c2ccccc2C(=O)N(Cc2ccc(OC(F)(F)F)cc2)[C@H]1c1ccc(CO)cc1', 'z-score', 0.0863),
  ('C=CC[C@]1(C(=O)N(C)C)COC(c2ccc(OCCCO)cc2)=N1', 'z-score', -0.424),
  ('CCOC(=O)C[C@H]1[C@H](OC(=O)c2ccc(-c3ccccc3)cc2)[C@@H](NC(=O)c2ccc3ccccc3c2)c2cc(OCCCO)ccc2N1C(=O)c1ccccc1', 'z-score', -0.438),
  ('CN1C=C(C(=O)OCCS(C)(=O)=O)C(C(=O)OCCS(C)(=O)=O)=CC(CCCO)=CC1c1ccc(CN2CCCC2)cc1 (configuration not stated)', 'z-score', 0.101),
  ('COc1ccc(CCNC(=O)[C@@]2(C)c3ccccc3C(=O)N(Cc3cc(C(F)(F)F)cc(C(F)(F)F)c3)[C@H]2c2ccc(CO)cc2)cc1', 'z-score', -2.16),
  ('COCCCNC(=O)[C@@H]1c2ccccc2C(=O)N(C2CCCCC2)[C@H]1c1ccc(CO)cc1', 'z-score', 0.777),
  ('CC(C)C(=C=CC[C@@H](O)c1ccccc1OCCO)C[C@@H](O)c1cc(Cl)cc(Cl)c1O', 'z-score', -3.43),
  ('COCCCN1C(=O)[C@@]2(Cc3ccccc31)c1ccccc1C(=O)N(Cc1ccccc1OC)[C@H]2c1ccc(CO)cc1', 'z-score', -0.492),
  ('Cc1ccccc1C(O)C1C=CC2C(=O)N(c3ccccc3)C(=O)C2N1Nc1ccccc1F (configuration not stated)', 'z-score', -0.584),
  ('CCCCN1CC=CC23O[C@@H]4C=CCOC(=O)[C@@H]4[C@H]2C(=O)N(CCO)[C@@H]3C1=O (some centres not stated)', 'z-score', -1.05),
  ('C=C(CCCC)C(=O)CC[C@H](OC(C)=O)c1ccccc1OCCO', 'z-score', -3.29),
  ('C=CC[C@]1(C(=O)OC)N=C(c2ccc(OCCCO)cc2)O[C@H]1c1ccccc1N=[N+]=[N-]', 'z-score', -0.54),
  ('COCCOC(=O)N1C(=O)[C@@]2(c3cc(C#CCC(C(=O)OC)C(=O)OC)ccc31)[C@H](C(=O)N1CCCCCCC1)[C@H]1C(=O)O[C@H](c3ccccc3)[C@H](c3ccccc3)N1[C@@H]2c1ccccc1OCCO', 'z-score', -0.284),
  ('[N-]=[N+]=NCc1ccccc1C[C@]1(C(=O)NCc2ccccc2)N=C(c2ccc(OCCCO)cc2)O[C@H]1c1ccccc1CN=[N+]=[N-]', 'z-score', -1.23),
  ('COc1ccccc1CN1C(=O)c2ccccc2[C@@H](C(=O)NCCCN(C)C)[C@@H]1c1ccc(CO)cc1', 'z-score', 0.376),
  ('CCCC[C@@H]1C[C@H]1[C@@H](NC(=O)Cc1ccccc1)c1ccc(Cl)cc1', 'z-score', -3.46),
  ('CCCCN1CC=CC23O[C@@H]4/C=C\CCC(C)OC(=O)C4[C@H]2C(=O)N(C(C)CO)[C@@H]3C1=O (some centres not stated)', 'z-score', 0.646),
  ('COCCOC(=O)N1C(=O)[C@@]2(c3cc(C#CC4=CCCCC4)ccc31)[C@H](C(=O)N1CCc3cc(OC)c(OC)cc3C1)[C@H]1C(=O)O[C@H](c3ccccc3)[C@H](c3ccccc3)N1[C@@H]2c1ccc(O)cc1', 'z-score', -1.16),
  ('COC(=O)Cn1c(C(=O)N(C)C)cc2c1C[C@H]1CN(C(=O)c3ccccc3)[C@@](Cc3ccc(OC)cc3)(C(=O)OC)[C@@H]21', 'z-score', 0.611),
  ('O=C1OCCC/C=C\[C@H]2OC34C=CCN(Cc5ccccc5)C(=O)[C@H]3N(CCCCCO)C(=O)[C@@H]4C12 (some centres not stated)', 'z-score', 1.03),
  ('C[C@H]1NC(=O)C([C@@H](C)OCc2ccccc2)NC(=O)[C@@]23C(=O)N[C@@H](Cc4ccccc4)C2[C@H](C)[C@@]2(C)O[C@H]2C3/C=C/C/C=C\CNC1=O (some centres not stated)', 'z-score', -0.0497),
  ('COCCOC(=O)N1C(=O)[C@@]2(c3cc(C#CCCO)ccc31)[C@H](C(=O)N1CCc3cc(OC)c(OC)cc3C1)[C@H]1C(=O)O[C@H](c3ccccc3)[C@H](c3ccccc3)N1[C@@H]2c1ccccc1OCCO', 'z-score', 1.1);
